Assay: Plasma clearance in Sprague-Dawley rat at 5 mg/kg, iv
Type: ADME, organism-based
Parameters: dose 5 mg/kg, route intravenous
# clearance binned as small value = under 5 mL/min/kg, mid value = from 5 mL/min/kg up to 20 mL/min/kg, large value = 20 mL/min/kg and over

Ask: For N#C[C@@H]1CCCN1C(=O)[C@@H]1CC[C@H](COc2cc([N+](=O)[O-])c(Cl)cc2Cl)N1 , which clearance bin applies?
Result: small value

Ask: For C[C@H]1CC[C@@H](C(=O)N2CCC[C@H]2C#N)N1 , which clearance bin applies?
Result: large value

Ask: For N#Cc1ccc(OC[C@H]2CC[C@@H](C(=O)N3CCC[C@H]3C#N)N2)c(Cl)c1 , which clearance bin applies?
Result: mid value

Ask: For CS(=O)(=O)c1ccc(OC[C@H]2CC[C@@H](C(=O)N3CCC[C@H]3C#N)N2)c(Br)c1 , which clearance bin applies?
Result: mid value

Ask: For N#C[C@@H]1CCCN1C(=O)[C@@H]1CC[C@H](COc2cc(C(=O)O)ccc2Cl)N1 (mixture of isomers) , which clearance bin applies?
Result: small value

Ask: For CC(C)(C)c1cc(C(=O)O)ccc1OC[C@H]1CC[C@@H](C(=O)N2CCC[C@H]2C#N)N1 , which clearance bin applies?
Result: mid value

Ask: For N#C[C@@H]1CCCN1C(=O)[C@@H]1CC[C@H](COc2cc(C(=O)O)cnc2Cl)N1 , which clearance bin applies?
Result: mid value

Ask: For CC(C)c1cc(C(=O)O)ccc1OC[C@H]1CC[C@@H](C(=O)N2CCC[C@H]2C#N)N1 , which clearance bin applies?
Result: mid value

Ask: For CC(C)(C)c1ccccc1OC[C@H]1CC[C@@H](C(=O)N2CCC[C@H]2C#N)N1 , which clearance bin applies?
Result: large value

====

Assay: Half life in Sprague-Dawley rat at 5 mg/kg, po
Assay type: ADME, organism-based
Design: dose 5 mg/kg, route oral
Conditions used: in vivo
Everything with half-life lower than 4 h is condition not met; everything else, including exactly 4 h, is condition met.

Ask: Does the compound N#C[C@@H]1CCCN1C(=O)[C@@H]1CC[C@H](COc2cc(C(=O)O)cnc2Cl)N1 have recorded half-life that is 4 h or more?
Result: condition not met

Ask: Does the compound CC(C)(C)c1ccccc1OC[C@H]1CC[C@@H](C(=O)N2CCC[C@H]2C#N)N1 have recorded half-life that is 4 h or more?
Result: condition not met

Ask: Does the compound CS(=O)(=O)c1ccc(OC[C@H]2CC[C@@H](C(=O)N3CCC[C@H]3C#N)N2)c(Br)c1 have recorded half-life that is 4 h or more?
Result: condition not met

Ask: Does the compound N#Cc1ccc(OC[C@H]2CC[C@@H](C(=O)N3CCC[C@H]3C#N)N2)c(Cl)c1 have recorded half-life that is 4 h or more?
Result: condition not met

Ask: Does the compound N#C[C@@H]1CCCN1C(=O)[C@@H]1CC[C@H](COc2cc(C(=O)O)ccc2Cl)N1 (mixture of isomers) have recorded half-life that is 4 h or more?
Result: condition met

Ask: Does the compound N#C[C@@H]1CCCN1C(=O)[C@@H]1CC[C@H](COc2cc([N+](=O)[O-])c(Cl)cc2Cl)N1 have recorded half-life that is 4 h or more?
Result: condition not met

Ask: Does the compound C[C@H]1CC[C@@H](C(=O)N2CCC[C@H]2C#N)N1 have recorded half-life that is 4 h or more?
Result: condition not met

Ask: Does the compound CC(C)(C)c1cc(C(=O)O)ccc1OC[C@H]1CC[C@@H](C(=O)N2CCC[C@H]2C#N)N1 have recorded half-life that is 4 h or more?
Result: condition met

Ask: Does the compound CC(C)c1cc(C(=O)O)ccc1OC[C@H]1CC[C@@H](C(=O)N2CCC[C@H]2C#N)N1 have recorded half-life that is 4 h or more?
Result: condition not met

====

I'd appreciate it if you could supply Vd values for the items below.
Assay: Volume of distribution in Sprague-Dawley rat at 5 mg/kg
Format: ADME, organism-based
Parameters: dose 5 mg/kg
Conditions used: in vivo, read-out: Vdss
Field: numeric (L/kg). Do not append units.

Ask: Kindly indicate its recorded Vd. Item: N#Cc1ccc(OC[C@H]2CC[C@@H](C(=O)N3CCC[C@H]3C#N)N2)c(Cl)c1
Result: 0.2

Ask: Kindly indicate its recorded Vd. Item: CC(C)(C)c1cc(C(=O)O)ccc1OC[C@H]1CC[C@@H](C(=O)N2CCC[C@H]2C#N)N1
Result: 1

Ask: Kindly indicate its recorded Vd. Item: N#C[C@@H]1CCCN1C(=O)[C@@H]1CC[C@H](COc2cc(C(=O)O)ccc2Cl)N1 (mixture of isomers)
Result: 0.35

Ask: Kindly indicate its recorded Vd. Item: CC(C)(C)c1ccccc1OC[C@H]1CC[C@@H](C(=O)N2CCC[C@H]2C#N)N1
Result: 1.14

Ask: Kindly indicate its recorded Vd. Item: N#C[C@@H]1CCCN1C(=O)[C@@H]1CC[C@H](COc2cc(C(=O)O)cnc2Cl)N1
Result: 0.35

====

Assay: Oral bioavailability in Sprague-Dawley rat at 5 mg/kg
Type: ADME, organism-based
Conditions used: in vivo
I'd appreciate it if you could supply bioavailability values for the items below.
Field: numeric (%). Do not append units.

Ask: Kindly indicate its recorded bioavailability. Item: N#Cc1ccc(OC[C@H]2CC[C@@H](C(=O)N3CCC[C@H]3C#N)N2)c(Cl)c1
Result: 39

Ask: Kindly indicate its recorded bioavailability. Item: CC(C)(C)c1cc(C(=O)O)ccc1OC[C@H]1CC[C@@H](C(=O)N2CCC[C@H]2C#N)N1
Result: 63

Ask: Kindly indicate its recorded bioavailability. Item: N#C[C@@H]1CCCN1C(=O)[C@@H]1CC[C@H](COc2cc([N+](=O)[O-])c(Cl)cc2Cl)N1
Result: 13.5

Ask: Kindly indicate its recorded bioavailability. Item: N#C[C@@H]1CCCN1C(=O)[C@@H]1CC[C@H](COc2cc(C(=O)O)ccc2Cl)N1 (mixture of isomers)
Result: 7

====

I'd appreciate it if you could supply bioavailability values for the items below.
Assay: Oral bioavailability in Sprague-Dawley rat at 5 mg/kg
Format: ADME, organism-based
Conditions used: in vivo
Field: numeric (%). Do not append units.

Ask: Kindly indicate its recorded bioavailability. Item: N#C[C@@H]1CCCN1C(=O)[C@@H]1CC[C@H](COc2cc(C(=O)O)cnc2Cl)N1
Result: 2

Ask: Kindly indicate its recorded bioavailability. Item: CS(=O)(=O)c1ccc(OC[C@H]2CC[C@@H](C(=O)N3CCC[C@H]3C#N)N2)c(Br)c1
Result: 40

Ask: Kindly indicate its recorded bioavailability. Item: CC(C)(C)c1ccccc1OC[C@H]1CC[C@@H](C(=O)N2CCC[C@H]2C#N)N1
Result: 3

Ask: Kindly indicate its recorded bioavailability. Item: C[C@H]1CC[C@@H](C(=O)N2CCC[C@H]2C#N)N1
Result: 58

Ask: Kindly indicate its recorded bioavailability. Item: CC(C)c1cc(C(=O)O)ccc1OC[C@H]1CC[C@@H](C(=O)N2CCC[C@H]2C#N)N1
Result: 34

====

I'd appreciate it if you could supply AUC values for the items below.
Test system: Rattus norvegicus
Assay: AUC in Sprague-Dawley rat at 5 mg/kg, po
Format: ADME, organism-based, Plasma
Set-up: dose 5 mg/kg, route oral
Conditions used: in vivo
Field: numeric (µg·h/mL). Do not append units.

Ask: Kindly indicate its recorded AUC. Item: CC(C)(C)c1cc(C(=O)O)ccc1OC[C@H]1CC[C@@H](C(=O)N2CCC[C@H]2C#N)N1
Result: 9.63

Ask: Kindly indicate its recorded AUC. Item: N#C[C@@H]1CCCN1C(=O)[C@@H]1CC[C@H](COc2cc([N+](=O)[O-])c(Cl)cc2Cl)N1
Result: 2.99

Ask: Kindly indicate its recorded AUC. Item: C[C@H]1CC[C@@H](C(=O)N2CCC[C@H]2C#N)N1
Result: 0.652

Ask: Kindly indicate its recorded AUC. Item: CC(C)(C)c1ccccc1OC[C@H]1CC[C@@H](C(=O)N2CCC[C@H]2C#N)N1
Result: 0.028

Ask: Kindly indicate its recorded AUC. Item: N#Cc1ccc(OC[C@H]2CC[C@@H](C(=O)N3CCC[C@H]3C#N)N2)c(Cl)c1
Result: 3.14

Ask: Kindly indicate its recorded AUC. Item: N#C[C@@H]1CCCN1C(=O)[C@@H]1CC[C@H](COc2cc(C(=O)O)cnc2Cl)N1
Result: 0.087

Ask: Kindly indicate its recorded AUC. Item: N#C[C@@H]1CCCN1C(=O)[C@@H]1CC[C@H](COc2cc(C(=O)O)ccc2Cl)N1 (mixture of isomers)
Result: 1.28

Ask: Kindly indicate its recorded AUC. Item: CS(=O)(=O)c1ccc(OC[C@H]2CC[C@@H](C(=O)N3CCC[C@H]3C#N)N2)c(Br)c1
Result: 2.92

Ask: Kindly indicate its recorded AUC. Item: CC(C)c1cc(C(=O)O)ccc1OC[C@H]1CC[C@@H](C(=O)N2CCC[C@H]2C#N)N1
Result: 4.11
